System: Escherichia coli
Assay: Antibacterial activity against Escherichia coli ATCC 25938 at 1 to 1000 ug/ml after overnight incubation by disc diffusion method
Format: functional
measurement.type: diameter of the inhibition zone (DIZ)

Some compounds with recorded diameter of the inhibition zone (DIZ):
smiles.entry	target.system	diameter of the inhibition zone (DIZ)
CCOC(=O)c1cc(C(=O)c2ccccc2)n2ccc3ccccc3c12	Escherichia coli	11.2 mm
O=C(c1ccccc1)c1c(-c2ccccc2)cc2c3ccccc3ccn12	Escherichia coli	10 mm
N#Cc1cc(C(=O)c2ccccc2)n2ccc3ccccc3c12	Escherichia coli	8 mm
COC(=O)c1c(C(=O)OC)c2ccc3ccccc3n2c1C(=O)c1ccccc1	Escherichia coli	12.1 mm

Would you kindly look at the next entry?
Specify reported diameter of the inhibition zone (DIZ) for the compound shown: `CCOC(=O)c1c(C(=O)OCC)c2ccc3ccccc3n2c1C(=O)c1ccccc1`
8.1 mm
